Entry source: ChEMBL document CHEMBL1134420

Items are presented alongside their recorded IC50.
Test system: L1210
Assay: Cytotoxic activity against L1210 leukemia cells
Assay type: functional, cell-based, Mus musculus
Details: Mus musculus, L1210
Field: numeric (nM). Do not append units.

Recorded IC50, per entry:
>>> print(df.to_string())
                                 cpd_smiles  assayed_target  recorded_endpoint  uom  value_measured
0  COc1ccc2[nH]c(C(=O)N3C[C@H]4C[C@@]45C3=CC(=O)c3ccccc35)cc2c1           L1210               IC50   nM            0.05
1  CCCOc1ccc2[nH]c(C(=O)N3C[C@H]4C[C@@]45C3=CC(=O)c3ccccc35)cc2c1           L1210               IC50   nM            0.04

Now look at this entry.
I'd like to know its IC50. The molecule in question is O=C1C=C2N(C(=O)c3cc4cc(OCc5ccccc5)ccc4[nH]3)C[C@H]3C[C@@]23c2ccccc21 0.05

====

Some compounds, each annotated with its measured log10 IC50.
Test system: L1210
Assay: Cytotoxic activity against L1210 leukemia cells
Assay type: functional, cell-based, Mus musculus
Conditions: Mus musculus, L1210
Scale type: logarithmic (base 10). Underlying IC50 unit: pM.

The cases that follow already have their log10 IC50 on record.
In [3]: df
Out[3]:
                                 cpd_smiles  assayed_target  value_measured
0  CCC(=O)Nc1ccc2[nH]c(C(=O)N3C[C@H]4C[C@@]45C3=CC(=O)c3ccccc35)cc2c1           L1210            1.48
1  CC(=O)N(C)c1ccc2[nH]c(C(=O)N3C[C@H]4C[C@@]45C3=CC(=O)c3ccccc35)cc2c1           L1210            1.48
2  CC(=O)Nc1ccc2[nH]c(C(=O)N3C[C@H]4C[C@@]45C3=CC(=O)c3ccccc35)cc2c1           L1210            1.48

Quick one: log10 IC50 of CC#Cc1ccc2[nH]c(C(=O)N3C[C@H]4C[C@@]45C3=CC(=O)c3ccccc35)cc2c1 ? 3.00

Which value of log10 IC50 has been reported for CC(=O)c1cccc2cc(C(=O)N3C[C@H]4C[C@@]45C3=CC(=O)c3ccccc35)[nH]c12 in the records? 2.48

What measured log10 IC50 goes with CCCCOc1ccc2[nH]c(C(=O)N3C[C@H]4C[C@@]45C3=CC(=O)c3ccccc35)cc2c1 ? 1.70

// returns reported log10 IC50 for input C#Cc1ccc2[nH]c(C(=O)N3C[C@H]4C[C@@]45C3=CC(=O)c3ccccc35)cc2c1 2.48

What value of measured log10 IC50 is listed for N#Cc1ccc2[nH]c(C(=O)N3C[C@H]4C[C@@]45C3=CC(=O)c3ccccc35)cc2c1 ? 1.48

I am curious: what log10 IC50 value has been reported for O=C1C=C2N(C(=O)c3cc4cc(Cl)ccc4[nH]3)C[C@H]3C[C@@]23c2ccccc21 ? 2.60

====

Quick reference for IC50 among some compounds
Test system: L1210
Assay: Cytotoxic activity against L1210 leukemia cells
Format: functional, cell-based, Mus musculus
Conditions: Mus musculus, L1210
Form field: result (number plus unit)

Below, 3 compounds whose answers are already recorded.
In [3]: df
Out[3]:
                                 cpd_smiles  value_measured
0  O=C1C=C2N(C(=O)c3cc4cc(Br)ccc4[nH]3)C[C@H]3C[C@@]23c2ccccc21          0.5 nM
1  CCCC(=O)c1ccc2[nH]c(C(=O)N3C[C@H]4C[C@@]45C3=CC(=O)c3ccccc35)cc2c1         0.02 nM
2  N#Cc1cccc2cc(C(=O)N3C[C@H]4C[C@@]45C3=CC(=O)c3ccccc35)[nH]c12          0.3 nM

Lab note: need IC50 with L1210 for entry CC(=O)c1ccc2[nH]c(C(=O)N3C[C@H]4C[C@@]45C3=CC(=O)c3ccccc35)cc2c1 , please look it up. 0.002 nM

# get_value(readout= IC50, system= L1210) for CCOc1ccc2[nH]c(C(=O)N3C[C@H]4C[C@@]45C3=CC(=O)c3ccccc35)cc2c1 0.01 nM
